src = patent US6001988

# STUDY_TARGET: P-selectin (PS-Rg) (Homo sapiens)
# Sequence: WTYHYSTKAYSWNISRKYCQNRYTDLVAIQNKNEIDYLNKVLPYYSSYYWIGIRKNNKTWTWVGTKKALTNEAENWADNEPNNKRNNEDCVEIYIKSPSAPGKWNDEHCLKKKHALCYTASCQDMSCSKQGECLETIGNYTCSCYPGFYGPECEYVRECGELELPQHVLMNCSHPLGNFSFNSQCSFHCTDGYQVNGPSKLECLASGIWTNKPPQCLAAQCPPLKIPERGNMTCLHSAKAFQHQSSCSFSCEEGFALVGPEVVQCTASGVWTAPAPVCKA
# PROTOCOL_NOTES: filter
# CONDITION_DESCRIPTION: 2'-NH2 all C and U; 4 C, HSMC
Listed here are sequences together with their documented Kd.

>>> print(df.to_string())
                                 seq_string  endpoint_value
0  GGGAGGACGAUGCGGAAGUGAAGCUAAAGCGGAGGGCCAUUCAGUUUCNCACCACAGACGACUCGCCCGA [F14.2]         0.45 µM

Could you now look at the following sequence, please?
Query: Look at this sequence and give its reported Kd. GGGAGGACGAUGCGGUAACAACAAUCAAGGCGGGUUYACCGCCCCAGUAUGAGUACAGACGACUCGCCCGA [F14.12]
Response: 0.91 µM

----------
# STUDY_TARGET: L-selectin (LS-Rg) (Homo sapiens)
# Sequence: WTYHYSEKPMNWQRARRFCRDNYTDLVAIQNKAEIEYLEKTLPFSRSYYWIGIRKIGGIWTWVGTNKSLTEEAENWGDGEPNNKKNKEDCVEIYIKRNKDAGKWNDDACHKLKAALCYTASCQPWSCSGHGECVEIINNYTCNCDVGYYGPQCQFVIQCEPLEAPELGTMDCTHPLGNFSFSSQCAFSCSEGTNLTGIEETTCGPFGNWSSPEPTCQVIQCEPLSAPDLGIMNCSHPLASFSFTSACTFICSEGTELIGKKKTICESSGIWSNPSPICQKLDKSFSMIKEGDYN
# PROTOCOL_NOTES: filter
# CONDITION_DESCRIPTION: estimate for random ssDNA
QUANTITY_KIND: Kd (µM)
Answer format: numeric, µM implied, no suffix.

Query: Look at this sequence and give its reported Kd. CTACCTACGATCTGACTAGCNNNNNNNNNNNNNNNNNNNNNNNNNNNNNNNNNNNNNNNNGCTTACTCTCATGTAGTTCC [random 40BH ssDNA pool]
Response: 10

----------
# STUDY_TARGET: L-selectin (LS-Rg) (Homo sapiens) (UniProt P14151)
# Sequence: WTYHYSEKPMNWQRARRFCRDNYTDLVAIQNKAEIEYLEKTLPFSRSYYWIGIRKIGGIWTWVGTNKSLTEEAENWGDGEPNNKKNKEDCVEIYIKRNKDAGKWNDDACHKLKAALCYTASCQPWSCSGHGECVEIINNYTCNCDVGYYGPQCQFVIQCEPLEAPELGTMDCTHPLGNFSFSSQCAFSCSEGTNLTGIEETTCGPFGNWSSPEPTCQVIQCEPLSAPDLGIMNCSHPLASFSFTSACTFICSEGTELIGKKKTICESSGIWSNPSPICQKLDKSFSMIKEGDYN
# PROTOCOL_NOTES: filter
# CONDITION_DESCRIPTION: 37 C; room temp not determined
QUANTITY_KIND: pKd
pKd field: float, defined as -log10 of concentration (mol/L).

Query: Look at this sequence and give its reported pKd. CTACCTACGATCTGACTAGCCGAGGATCTGATACTTATTGAACATAMCCGCACNCAGGCTTGCTTACTCTCATGTAGTTCC [102]
Response: 8.10
